I'd appreciate it if you could supply inhibition (INH) values for the items below.
# protocol_summary: Inhibition of copper-mediated aggregation of amyloid beta (1 to 42 residues) (unknown origin) at 25 uM incubated for 24 hrs by thioflavin-T fluorescence assay relative to control
# Type: physicochemical
Give the value, in units of %, as a plain number.

Dear colleague, I am looking for the recorded inhibition (INH) of the following compound: CCN(Cc1ccccc1)Cc1c(O)cccc1/C=C1\COc2cc(OC)c(OC)cc2C1=O 28

Cool, now COc1cc(/C=C/C(=O)CC(=O)/C=C/c2ccc(O)c(OC)c2)ccc1O [CURCUMIN] 67.2

Cool, now CCN(Cc1ccc(/C=C2\COc3cc(OC)c(OC)cc3C2=O)cc1O)Cc1ccccc1OC 65.8

Cool, now COc1cc2c(cc1OC)C(=O)/C(=C/c1ccc(CN3CCOCC3)c(O)c1)CO2 38.7

Cool, now CCN(Cc1ccccc1)Cc1ccc(/C=C2\COc3cc(OC)c(OC)cc3C2=O)cc1O 49.9

Cool, now CCN(Cc1ccc(/C=C2\COc3cc(OC)c(OC)cc3C2=O)cc1O)Cc1ccccc1N(C)C 79.9

Cool, now COc1cc2c(cc1OC)C(=O)/C(=C/c1ccc(CN3CCCCC3)c(O)c1)CO2 47

Cool, now COc1ccccc1CN(C)Cc1c(O)cccc1/C=C1\COc2cc(OC)c(OC)cc2C1=O 54.9

Cool, now COc1cc2c(cc1OC)C(=O)/C(=C/c1ccc(CN3CCCC3)c(O)c1)CO2 36.5

Cool, now COc1cc2c(cc1OC)C(=O)/C(=C/c1ccc(CN3CCN(C)CC3)c(O)c1)CO2 40.5

Cool, now CCN(CC)Cc1ccc(/C=C2\COc3cc(OC)c(OC)cc3C2=O)cc1O 40.6

Cool, now COc1cc2c(cc1OC)C(=O)/C(=C/c1ccc(CN(C)Cc3ccccc3)c(O)c1)CO2 42.6

Cool, now COc1cc2c(cc1OC)C(=O)/C(=C/c1ccc(O)c(CN3CCCCC3)c1)CO2 49

Cool, now COc1cc2c(cc1OC)C(=O)/C(=C/c1cccc(O)c1CN1CCOCC1)CO2 32.4

Cool, now COc1ccccc1CN(C)Cc1ccc(/C=C2\COc3cc(OC)c(OC)cc3C2=O)cc1O 67.8

Cool, now COc1cc2c(cc1OC)C(=O)/C(=C/c1cccc(O)c1)CO2 30.3

Cool, now CCN(CC)Cc1c(O)cccc1/C=C1\COc2cc(OC)c(OC)cc2C1=O 29.1

Cool, now COc1cc2c(cc1OC)C(=O)/C(=C/c1ccc(CN(C)C)c(O)c1)CO2 42.2

Cool, now COc1cc2c(cc1OC)C(=O)/C(=C/c1cccc(O)c1CN1CCN(C)CC1)CO2 36.3
